- Target entity: UniProtKB Q72547
Endpoint label: IC50 (µM)
Lab book: enter the figure in µM, no units written.

Known results for compounds:
> print(dat)
                                     smiles  experimental.result
1  CC(C)Nc1cccnc1N1CCN(C(=O)c2cc3cc(N(C)S(C)(=O)=O)ccc3[nH]2)CC1                  5.6
2  CC(C)Nc1cccnc1N1CCN(C(=O)c2cc3ccc(OS(C)(=O)=O)cc3[nH]2)CC1                  2.2
3  COc1ccc2cc(C(=O)N3CCN(c4ncccc4NC(C)C)CC3)[nH]c2c1                  1.3

Which value of IC50 has been reported for `CC(C)Nc1cccnc1N1CCN(C(=O)c2cc3ccc(C#N)cc3[nH]2)CC1` in the records? 3.9

I'd like to know its IC50. The compound in question is `CC(C)Nc1cccnc1N1CCN(C(=O)c2cc3cc(OS(C)(=O)=O)ccc3[nH]2)CC1` 5.5

Given the compound `CC(C)Nc1cccnc1N1CCN(C(=O)c2cc3ccc(O)cc3[nH]2)CC1` , what is its reported IC50? 1.2

* * *

Entries and their measured pIC50 follow.
- Target entity: Human immunodeficiency virus type 1 reverse transcriptase (Human immunodeficiency virus 1)
Note on pIC50: it is the negative log10 of concentration, concentration in mol/L.

Reference set (3 entries):
> print(dat)
                                     smiles  endpoint.label  experimental.result
1  CC(C)Nc1cccnc1N1CCN(C(=O)c2cc3cc(NS(=O)(=O)C(F)(F)F)ccc3[nH]2)CC1           pIC50                 5.08
2  CC(=O)Nc1ccc2[nH]c(C(=O)N3CCN(c4ncccc4NC(C)C)CC3)cc2c1           pIC50                 5.74
3  CCNc1cccnc1N1CCN(C(=O)c2cc3cc(O)ccc3[nH]2)CC1           pIC50                 5.70

Entry `CC(C)Nc1cccnc1N1CCN(C(=O)c2cc3ccccc3[nH]2)CC1` : reported pIC50 = ? 5.92

// lookup pIC50 for `CC(C)Nc1cccnc1N1CCN(C(=O)c2cc3ccc(C=O)cc3[nH]2)CC1` 5.85

What value of measured pIC50 is listed for `CCNc1cccnc1N1CCN(C(=O)c2cc3ccccc3[nH]2)CC1` ? 5.40

* * *

- Test system: Human immunodeficiency virus 1
- Assay info: Inhibition of HIV-1 D34 replication in human peripheral blood mononuclear cells.
- Assay type: functional
- Condition info: read-out: ED50 (the source's name)
Endpoint label: EC50
Quote the value and follow it with the unit of measurement.

# count of solved cases: 2
> print(dat)
                                     smiles  experimental.result
1  CC(C)Nc1cccnc1N1CCN(C(=O)c2cc3cc(N(C)S(C)(=O)=O)ccc3[nH]2)CC1                 1 nM
2  CC(C)Nc1cccnc1N1CCN(C(=O)c2cc3cc(N)ccc3[nH]2)CC1                10 nM

Any idea what EC50 was measured for `COC(=O)Nc1ccc2[nH]c(C(=O)N3CCN(c4ncccc4NC(C)C)CC3)cc2c1` ? 0.1 nM

Entry source: ChEMBL document CHEMBL1126697
